Target: CCK receptor (rat pancreas membranes) (Rattus norvegicus, UniProt P30551)
Construct: The whole pancreas was dissected free of fat tissue and was homogenized; from tissue; host or cells: pancreas of male Sprague-Dawley rats (membranes)
Sequence (P30551 1-444): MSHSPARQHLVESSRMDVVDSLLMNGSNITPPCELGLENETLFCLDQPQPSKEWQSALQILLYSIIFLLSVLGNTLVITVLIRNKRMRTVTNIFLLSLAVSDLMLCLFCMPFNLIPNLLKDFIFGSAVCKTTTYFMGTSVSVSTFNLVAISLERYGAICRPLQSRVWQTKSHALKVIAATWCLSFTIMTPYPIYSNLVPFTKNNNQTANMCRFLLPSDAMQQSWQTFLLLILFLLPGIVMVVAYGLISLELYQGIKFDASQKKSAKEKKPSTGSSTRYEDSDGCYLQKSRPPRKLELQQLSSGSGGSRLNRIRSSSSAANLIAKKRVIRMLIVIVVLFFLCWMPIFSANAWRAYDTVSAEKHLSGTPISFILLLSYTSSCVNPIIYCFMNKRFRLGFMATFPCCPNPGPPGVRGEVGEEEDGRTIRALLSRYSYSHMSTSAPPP
Experiment: 125I-CCK receptor binding (pancreas)
Conditions: 125I-CCK-33, rat pancreas, 37° C., 30 minutes; read-out: IC50 (uM) 125I-CCK Pancreas
Assign IC50 to each entry below.
Answers are plain numbers, in µM.

Recorded IC50, per entry:
> print(dat)
                                   molecule  measure  observed.result
1  CCOC(=O)CNC1=Nc2ccccc2C(c2ccccc2)=NC1NC(=O)Nc1ccc(Cl)cc1 (stereo not shown) [Example 10]     IC50              1.4
2  CNC1=Nc2ccccc2C(c2ccccc2F)=N[C@@H]1Cc1c[nH]c2ccccc12 [Example 4]     IC50              4.5
3  O=C(O)CNC1=Nc2ccccc2C(c2ccccc2)=NC1NC(=O)Nc1ccc(Cl)cc1 (stereo not shown) [Example 9]     IC50            0.069
4  CCOC(=O)CNC1=Nc2ccccc2C(c2ccccc2F)=N[C@@H]1Cc1c[nH]c2ccccc12 [Example 5]     IC50               23
5  N#CNC1=Nc2ccccc2C(c2ccccc2F)=N[C@@H]1Cc1c[nH]c2ccccc12 [Example 6]     IC50                2

# map each molecule to its IC50
1. Fc1ccccc1C1=N[C@H](Cc2c[nH]c3ccccc23)C(Nc2ccccc2)=Nc2ccccc21 [Example 1]
2. O=C(O)CNC1=Nc2ccccc2C(c2ccccc2F)=N[C@@H]1Cc1c[nH]c2ccccc12 [Example 8]

stdout:
1. 34
2. 3.6

----------
Target: gastrin receptor (Cavia porcellus, UniProt H0VZC5)
Construct: Gastric mucosa from guinea pigs (300-500 g body weight, male Hartley) were washed thoroughly and minced; from tissue; host or cells: gastric mucosal glands of male Hartley guinea pigs
Sequence (H0VZC5 entry or part of it): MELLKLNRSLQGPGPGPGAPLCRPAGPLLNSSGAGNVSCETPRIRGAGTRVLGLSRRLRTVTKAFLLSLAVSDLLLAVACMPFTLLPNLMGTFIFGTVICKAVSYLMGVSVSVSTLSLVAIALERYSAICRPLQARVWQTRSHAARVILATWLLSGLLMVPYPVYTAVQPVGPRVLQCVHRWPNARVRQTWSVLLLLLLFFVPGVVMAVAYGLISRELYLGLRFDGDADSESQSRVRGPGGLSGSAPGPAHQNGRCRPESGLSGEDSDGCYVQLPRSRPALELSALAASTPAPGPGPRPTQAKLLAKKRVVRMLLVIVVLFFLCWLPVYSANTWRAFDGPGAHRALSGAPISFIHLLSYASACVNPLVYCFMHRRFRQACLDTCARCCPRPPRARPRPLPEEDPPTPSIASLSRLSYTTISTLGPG
Test: Gastrin receptor binding in guinea pig gastric glands
Conditions: guinea pig gastric mucosal glands
Give IC50 for every item shown.
Numbers only, in µM.

Examples with answers:
> print(dat)
                                   compound  observed.result
1  CNC1=Nc2ccccc2C(c2ccccc2F)=N[C@@H]1Cc1c[nH]c2ccccc12 [Example 4]               67
2  O=C(O)CNC1=Nc2ccccc2C(c2ccccc2F)=N[C@@H]1Cc1c[nH]c2ccccc12 [Example 8]              2.7

Now consider the entry below.
stdin: Report IC50, nothing else, for this compound: O=C(O)CNC1=Nc2ccccc2C(c2ccccc2)=NC1NC(=O)Nc1ccc(Cl)cc1 (stereo not drawn) [Example 9]
stdout: 0.032

----------
Target: CCK receptor (guinea pig cerebral cortex) (Cavia porcellus, UniProt H0VZC5)
Construct: Cerebral cortex was dissected and used as a receptor source; from tissue; host or cells: cerebral cortex of male Hartley guinea pigs (membranes)
Sequence (H0VZC5 entry or part of it): as above
Experiment: 125I-CCK receptor binding (brain)
Conditions: 125I-CCK-33, guinea pig cerebral cortex, 25° C., 2 hours
Measure: IC50

> print(dat)
                                   compound  observed.result
1  N#CNC1=Nc2ccccc2C(c2ccccc2F)=N[C@@H]1Cc1c[nH]c2ccccc12           100 µM
2  CCCNC1=Nc2ccccc2C(c2ccccc2F)=N[C@@H]1Cc1c[nH]c2ccccc12         > 100 µM
3  O=C(O)CNC1=Nc2ccccc2C(c2ccccc2)=NC1NC(=O)Nc1ccc(Cl)cc1 (stereo not shown)          0.11 µM

Shift focus to the following entry.
stdin: Give CCK receptor (guinea pig cerebral cortex) (Cavia porcellus, UniProt H0VZC5) IC50 for the following compound: Fc1ccccc1C1=N[C@H](Cc2c[nH]c3ccccc23)C(Nc2ccccc2)=Nc2ccccc21
stdout: 100 µM

Entry source: patent US4755508A
